Data credit: paper doi:10.1101/2024.12.23.630153v1

target: OXA-57 (Burkholderia pseudomallei, UniProt Q6ZZZ2); test: biochemical
Sequence (Q6ZZZ2 24-269 limits assumed): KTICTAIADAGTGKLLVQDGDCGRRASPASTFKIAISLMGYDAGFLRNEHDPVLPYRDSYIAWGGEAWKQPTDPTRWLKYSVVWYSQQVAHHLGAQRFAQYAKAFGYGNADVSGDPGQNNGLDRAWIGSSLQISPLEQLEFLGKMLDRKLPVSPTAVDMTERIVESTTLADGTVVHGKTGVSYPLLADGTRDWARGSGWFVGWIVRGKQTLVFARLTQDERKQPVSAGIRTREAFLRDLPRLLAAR
assay-endpoint: IC50

Completed entries (count: 4):
1) CC(C)(O/N=C(\C(=O)N[C@@H]1C(=O)N2C(C(=O)[O-])=C(C[n+]3ccccc3)CS[C@H]12)c1csc(N)n1)C(=O)O ... > 3.98 mM
2) O=C(O)[C@H]1/C(=C/CO)O[C@@H]2CC(=O)N21 [Clavulanate] ... 0.0094 mM
3) CO/N=C(\C(=O)N[C@@H]1C(=O)N2C(C(=O)O)=C(COC(C)=O)CS[C@H]12)c1csc(N)n1 ... > 3.98 mM
4) O=C(O)C[C@@H]1CC[C@H](NC(=O)Cc2cccs2)B(O)O1 ... > 3.98 mM

Now take the following compound into account.
In: // query IC50 value for entry C[C@H]1[C@H](NC(=O)/C(=N\OC(C)(C)C(=O)O)c2csc(N)n2)C(=O)N1S(=O)(=O)O
Out: > 3.98 mM
